Test system: P. aeruginosa ATCC 27853
Method description: Standard EPI assay: MIC of test antibiotic (levofloxacin, cefepime) in absence and presence of EPI
Format: cell-based, Pseudomonas aeruginosa
Condition: levofloxacin as antibiotic; EPI at 6.25 μg; Pseudomonas aeruginosa ATCC 27853
Measured metric: Enhanced Activity in P. aeruginosa (fold enhancement of antibiotic activity)
Don't forget the unit after the number, please.

In [3]: df
Out[3]:
                                   compound           target_of_assay  meas_value
0  Cl.Cl.NC[C@H]1CN[C@H](COc2cc(-c3ccc(F)cc3)cc(-c3ccc(F)cc3)c2)C1 [Example 7]  P. aeruginosa ATCC 27853  2x/6.25 μg

Data request: Give the measured Enhanced Activity in P. aeruginosa (fold enhancement of antibiotic activity) of Cl.Cl.NC[C@@H]1CN[C@H](CNC(=O)c2cc(-c3ccc(F)cc3)cc(-c3ccc(F)cc3)c2)C1 [Example 4] .
Data returned: 64x/6.25 μg

Data request: Requested field: Enhanced Activity in P. aeruginosa (fold enhancement of antibiotic activity). Item: Cl.Cl.NC[C@H]1CN[C@H](CNC(=O)c2cc(-c3ccc(F)cc3)cc(-c3ccc(F)cc3)c2)C1 [Example 5]
Data returned: 32x/6.25 μg

Data request: Give the measured Enhanced Activity in P. aeruginosa (fold enhancement of antibiotic activity) of Cl.Cl.NC[C@@H]1CN[C@H](COc2cc(-c3ccc(F)cc3)cc(-c3ccc(F)cc3)c2)C1 [Example 6] .
Data returned: 1x/6.25 μg

Data request: Can you look up the measured Enhanced Activity in P. aeruginosa (fold enhancement of antibiotic activity) of Cl.Cl.N[C@@H]1CN[C@H](CNC(=O)c2cc(-c3ccc(F)cc3)cc(-c3ccc(F)cc3)c2)C1 [Example 1] for me?
Data returned: 2x/6.25 μg
